Each recorded value in this set is attributed to ChEMBL document CHEMBL1149915.

# experimental.details: Inhibition of beta-arylsulfotransferase 4
readout.label: pKi
Please keep in mind that pKi is minus log10 of the molar concentration; only the number is needed.

Entry under review: "Clc1nc(NCc2cccc3ccccc23)c2nc[nH]c2n1" . Reported pKi? 7.02

* * *

# assayed.target: UniProtKB P24941
# experimental.details: Inhibition of Cdk2/cyclin A
readout.label: pIC50
Kindly note that pIC50 refers to -log10 of the concentration in mol/L and answer with the value alone.

What does the record list as pIC50 for "OCCn1cnc2c(NCc3ccccc3)nc(NCc3ccc(Br)cc3)nc21" ? 4.70

* * *

# experimental.details: Inhibition of cyclin dependent kinase
Quick list: pIC50 per entry.
// scale note: pIC50 = -log10(conc_M); give the bare number

Examples from the recorded data:
- chemical.structure: "Cn1cnc2c(NCc3ccccc3)nc(NCCO)nc21"
  recorded.number: 3.00
- chemical.structure: "CC[C@H](CO)Nc1nc(Nc2cccc(Cl)c2)c2ncn(C(C)C)c2n1"
  recorded.number: 8.40
- chemical.structure: "CC[C@H](CO)Nc1nc(Nc2cc(Cl)cc(C(=O)O)c2)c2ncn(C(C)C)c2n1"
  recorded.number: 8.40

Reported pIC50, compound "CC[C@H](CO)Nc1nc(NCc2ccccc2)c2ncn(C(C)C)c2n1" : ____ 6.35

* * *

# assayed.target: Cyclin-dependent kinase 1/cyclin B1 (Homo sapiens, UniProt P06493)
# Sequence (P06493 whole entry): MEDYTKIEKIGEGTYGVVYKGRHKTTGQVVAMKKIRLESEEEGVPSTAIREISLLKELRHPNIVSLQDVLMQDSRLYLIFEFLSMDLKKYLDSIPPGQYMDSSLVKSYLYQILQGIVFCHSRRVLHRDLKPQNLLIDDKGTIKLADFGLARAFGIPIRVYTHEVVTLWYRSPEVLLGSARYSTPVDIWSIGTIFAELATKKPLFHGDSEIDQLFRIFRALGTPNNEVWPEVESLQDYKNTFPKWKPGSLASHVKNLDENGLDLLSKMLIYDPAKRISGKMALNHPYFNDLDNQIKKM
# Sequence (P14635 whole entry, further chain): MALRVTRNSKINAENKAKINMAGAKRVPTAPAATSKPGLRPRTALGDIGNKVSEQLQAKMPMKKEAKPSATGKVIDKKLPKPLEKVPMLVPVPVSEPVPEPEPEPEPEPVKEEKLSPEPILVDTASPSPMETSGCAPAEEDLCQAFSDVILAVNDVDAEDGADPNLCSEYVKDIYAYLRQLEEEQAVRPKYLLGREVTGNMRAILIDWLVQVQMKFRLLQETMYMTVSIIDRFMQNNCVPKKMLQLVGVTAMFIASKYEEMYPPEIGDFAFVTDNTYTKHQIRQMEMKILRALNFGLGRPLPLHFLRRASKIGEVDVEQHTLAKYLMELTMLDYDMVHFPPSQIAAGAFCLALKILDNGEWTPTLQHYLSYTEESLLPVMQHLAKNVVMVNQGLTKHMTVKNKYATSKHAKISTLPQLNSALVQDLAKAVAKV
# experimental.details: Inhibition of Cdk1/cyclin B
pIC50: −log10 of the molar value.
readout.label: pIC50

Entry under review: "O=[N+]([O-])c1ccc(CNc2nc(NCc3cccc(C(F)(F)F)c3)nc3[nH]cnc23)cc1" . Reported pIC50? < 4.00
